molecular target: T1, human MC4R (human, UniProt P32245 1-332); assay: competitive binding vs 125I-NDP-α-MSH on whole HEK293 cells overexpressing human MC4R
T1 construct: whole, on cells
T1 sequence (P32245 whole entry): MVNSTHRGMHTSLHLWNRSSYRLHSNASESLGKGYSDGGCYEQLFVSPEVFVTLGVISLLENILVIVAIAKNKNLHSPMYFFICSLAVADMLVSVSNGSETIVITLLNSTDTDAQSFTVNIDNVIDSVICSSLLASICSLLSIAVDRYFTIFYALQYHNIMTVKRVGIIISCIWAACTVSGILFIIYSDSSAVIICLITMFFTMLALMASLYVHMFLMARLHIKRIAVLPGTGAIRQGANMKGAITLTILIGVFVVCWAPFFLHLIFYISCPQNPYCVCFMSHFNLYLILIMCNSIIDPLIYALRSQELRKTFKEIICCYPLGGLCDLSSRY
value-kind: pKi
Notebook: values listed as pKi are -log10 of the concentration (mol/L).

Inquiry: Data request, read-out pKi, for CXLDHFRWK (not fully specified; Cys 1 thiol joined by a disulfide to a 2-thioethyl carbonate linker carrying camptothecin; 6-aminohexanoic acid (6-Ahx) at 2; Nle at 3; D-Phe at 6; lactam cyclization between Asp 4 and Lys 9 side chains; C-terminal amide; no N-terminal acetyl on Nle (replaced by the Cys-6-Ahx spacer), also called CPT-MT-II (1); camptothecin-MT-II (1)) [camptothecin (CPT)-MT-II conjugate (1)]
Reply text: 6.76
